The origin of these recorded values is patent US20240336686A1.

Molecular target: T1, human SIRPα v2 ECD recombinant protein (human)
T1 construct: extracellular domain; Coated on the ELISA plate
Test: competitive ELISA, plate-coated human SIRPα v2 ECD; blocked ligand: mFc tagged human CD47 ECD
Property: TOP blocking (%)
The figure you give is taken to be in %; do not add the unit.

Some binders with recorded TOP blocking:
Binder: Anti-SIRPα antibody C25 (antibody, V domains shown, Mouse variable regions; also called 025c; 025) VH: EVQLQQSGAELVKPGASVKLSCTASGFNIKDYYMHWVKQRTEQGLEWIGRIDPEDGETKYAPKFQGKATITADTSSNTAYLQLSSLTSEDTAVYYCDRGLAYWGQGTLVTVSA VL: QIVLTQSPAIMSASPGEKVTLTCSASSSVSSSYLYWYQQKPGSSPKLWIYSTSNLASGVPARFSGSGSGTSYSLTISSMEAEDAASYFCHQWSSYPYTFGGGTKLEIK
Scale Unit: %
Result Value: 96.5
--
Binder: Anti-SIRPα antibody C15 (antibody, V domains shown, Mouse variable regions; tested as purified chimeric antibody; also called 015c) VH: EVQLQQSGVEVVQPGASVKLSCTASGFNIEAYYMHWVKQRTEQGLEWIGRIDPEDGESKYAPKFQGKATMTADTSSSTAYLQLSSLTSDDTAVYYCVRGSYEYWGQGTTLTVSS VL: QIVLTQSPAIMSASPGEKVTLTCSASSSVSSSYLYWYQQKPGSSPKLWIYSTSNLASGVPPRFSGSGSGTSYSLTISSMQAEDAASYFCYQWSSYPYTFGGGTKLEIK
Scale Unit: %
Result Value: 96.7

TOP blocking in this record for Anti-SIRPα antibody C42 (antibody, human IgG4, V domains shown, Mouse variable regions; also called 042c) VH: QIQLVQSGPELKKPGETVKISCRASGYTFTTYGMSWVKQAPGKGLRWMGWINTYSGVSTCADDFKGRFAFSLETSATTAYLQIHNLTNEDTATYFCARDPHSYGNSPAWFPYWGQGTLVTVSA VL: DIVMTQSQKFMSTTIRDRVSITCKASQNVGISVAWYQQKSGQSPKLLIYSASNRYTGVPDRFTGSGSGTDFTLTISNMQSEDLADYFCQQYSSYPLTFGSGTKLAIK : 94.6

Short answer for Anti-SIRPα antibody C73 (antibody, human IgG4, V domains shown, Mouse variable regions; also called 073c; 073C) VH: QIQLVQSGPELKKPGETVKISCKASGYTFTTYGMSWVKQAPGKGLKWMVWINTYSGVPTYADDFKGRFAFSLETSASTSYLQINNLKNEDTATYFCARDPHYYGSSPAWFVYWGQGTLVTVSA VL: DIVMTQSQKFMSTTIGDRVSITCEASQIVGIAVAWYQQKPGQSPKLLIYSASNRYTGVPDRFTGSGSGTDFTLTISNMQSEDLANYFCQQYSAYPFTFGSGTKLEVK : TOP blocking was 82.8

TOP blocking measured on Anti-SIRPα antibody C59 (antibody, V domains shown, Mouse variable regions; tested as purified chimeric antibody; also called 059c) VH: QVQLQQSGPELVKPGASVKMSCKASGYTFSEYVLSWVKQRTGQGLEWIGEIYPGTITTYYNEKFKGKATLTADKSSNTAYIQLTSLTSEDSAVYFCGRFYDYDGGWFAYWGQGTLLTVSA VL: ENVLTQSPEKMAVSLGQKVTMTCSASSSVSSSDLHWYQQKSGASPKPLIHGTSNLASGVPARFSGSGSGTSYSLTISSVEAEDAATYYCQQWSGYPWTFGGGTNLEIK = 84.4
